Sourced from patent US20210078988A1

molecular target: indoleamine 2, 3-dioxygenase (IDO1) (Homo sapiens); construct: human peripheral blood mononuclear cells (PBMC) (PB003F; host or cells: human PBMC stimulated with IFN-gamma and LPS; assay: PBMC IDO1 assay (kynurenine detection via mass spectrometry); type: cell-based; conditions: human PBMC stimulated with IFN-γ and LPS, 2 days, kynurenine by mass spectrometry; read-out: IDO1 PBMC pIC50 (converted)
Sequence (P14902 whole entry): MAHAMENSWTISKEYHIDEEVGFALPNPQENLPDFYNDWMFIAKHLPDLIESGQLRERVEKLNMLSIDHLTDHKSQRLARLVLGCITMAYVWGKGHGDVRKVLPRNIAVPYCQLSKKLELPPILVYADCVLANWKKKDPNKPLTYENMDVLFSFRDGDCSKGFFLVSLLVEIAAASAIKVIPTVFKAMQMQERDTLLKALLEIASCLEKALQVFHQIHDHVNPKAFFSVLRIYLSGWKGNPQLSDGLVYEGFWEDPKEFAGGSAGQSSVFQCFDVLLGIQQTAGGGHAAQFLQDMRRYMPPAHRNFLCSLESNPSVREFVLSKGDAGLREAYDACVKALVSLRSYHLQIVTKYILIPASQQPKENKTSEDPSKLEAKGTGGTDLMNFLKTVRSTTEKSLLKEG
METRIC: IC50 (µM)

Observe how each entry below is paired with its result.
COMPOUND	IC50 (µM)
CC(C)(C)OC(=O)N1CCC(CC(NC(=O)c2ccc(F)cc2)c2ccccn2)CC1 (centres unmarked)	0.631
CC(C)(C)OC(=O)N1CCC(CC(NC(=O)c2ccc(I)cc2)c2ccccc2)CC1 (centres unmarked)	0.0158
CC(C)CC(CC1CCN(C(=O)OC(C)(C)C)CC1)NC(=O)c1ccc(F)cc1 (centres unmarked)	0.0158

a: O=C(NC(CC1CCN(C(=O)OC2CCOCC2)CC1)c1ccccc1)c1ccc(Cl)cc1 (centres unmarked)
b: CC(C)CC(CC1CCN(C(=O)OC(C)(C)C)CC1)NC(=O)c1ccc(Cl)cc1 (centres unmarked)
c: CCNCC[C@H](CC1CCN(C(=O)OC(C)(C)C)CC1)NC(=O)c1ccc(Cl)s1
d: CCOC(=O)N1CCC(CC(NC(=O)c2ccc(OC)nc2)C2CC2)CC1 (centres unmarked)
e: CC(C)(C)OC(=O)N1CCC(CC(NC(=O)c2ccc(F)cc2)c2ccc(OC3CCCCC3)nc2)CC1 (centres unmarked)
Sort these compounds on IC50 so the largest reading comes first. # format: label list in the order the request specifies
c, a, d, e, b
